Tested on: Vero E6 cell line
Conditions: compound concentration producing minimal changes in cell morphology, estimated by microscopy
value type: MCC

| compound | value type | result |
| --- | --- | --- |
| CC(=O)N[C@H]1[C@H](O[C@@H]2c3ccc(c(Cl)c3)Oc3cc4cc(c3O)Oc3ccc(cc3Cl)C[C@H]3NC(=O)[C@H](n5cc(COCCOCCCC(F)(F)C(F)(F)C(F)(F)C(F)(F)C(F)(F)C(F)(F)C(F)(F)C(F)(F)F)nn5)c5ccc(O)c(c5)Oc5cc(O)cc(c5)[C@H](NC3=O)C(=O)N[C@H]4C(=O)N[C@H]3C(=O)N[C@@H]2C(=O)N[C@H](C(=O)O)c2cc(O)cc(O)c2-c2cc3ccc2O)O[C@H](CO)[C@@H](O)[C@@H]1O | MCC | >50 µM |
| COC(=O)C1NC(=O)C2NC(=O)C(NC(=O)C3NC(=O)C4NC(=O)C(NC(=O)C(NC(=O)CCC(F)(F)C(F)(F)C(F)(F)C(F)(F)C(F)(F)C(F)(F)C(F)(F)C(F)(F)F)c5ccc(O)c(c5)Oc5cc4cc(O)c5C)C(O)c4ccc(cc4)Oc4cc3cc(c4O)Oc3ccc(cc3)C2O)c2ccc(O)c(c2)-c2c(O)cc(O)cc21 (stereo not drawn) | MCC | >20 µM |
| CC(=O)N[C@H]1[C@H](O[C@@H]2c3ccc(c(Cl)c3)Oc3cc4cc(c3O)Oc3ccc(cc3Cl)C[C@H]3NC(=O)[C@H](NC(=O)CCC(F)(F)C(F)(F)C(F)(F)C(F)(F)C(F)(F)C(F)(F)C(F)(F)C(F)(F)F)c5ccc(O)c(c5)Oc5cc(O)cc(c5)[C@H](NC3=O)C(=O)N[C@H]4C(=O)N[C@H]3C(=O)N[C@@H]2C(=O)N[C@H](C(=O)O)c2cc(O)cc(O)c2-c2cc3ccc2O)O[C@H](CO)[C@@H](O)[C@@H]1O | MCC | >60 µM |
| CC(=O)NC1C(OC2c3ccc(c(Cl)c3)Oc3cc4cc(c3O)Oc3ccc(cc3Cl)CC3NC(=O)C(NC(=O)CCC(F)(F)C(F)(F)C(F)(F)C(F)(F)C(F)(F)C(F)(F)F)c5ccc(O)c(c5)Oc5cc(O)cc(c5)C(NC3=O)C(=O)NC4C(=O)NC3C(=O)NC2C(=O)NC(C(=O)O)c2cc(O)cc(O)c2-c2cc3ccc2O)OC(CO)C(O)C1O (stereo not drawn) | MCC | >60 µM |
| CC(=O)N[C@H]1[C@H](O[C@@H]2c3ccc(c(Cl)c3)Oc3cc4cc(c3O)Oc3ccc(cc3Cl)C[C@H]3NC(=O)[C@H](n5cc(COCCOCCCC(F)(F)C(F)(F)C(F)(F)C(F)(F)C(F)(F)C(F)(F)F)nn5)c5ccc(O)c(c5)Oc5cc(O)cc(c5)[C@H](NC3=O)C(=O)N[C@H]4C(=O)N[C@H]3C(=O)N[C@@H]2C(=O)N[C@H](C(=O)O)c2cc(O)cc(O)c2-c2cc3ccc2O)O[C@H](CO)[C@@H](O)[C@@H]1O | MCC | >40 µM |
| CC(=O)N[C@H]1[C@H](O[C@@H]2c3ccc(c(Cl)c3)Oc3cc4cc(c3O)Oc3ccc(cc3Cl)C[C@H]3NC(=O)[C@H](n5cc(COCCOCCCC(F)(F)C(F)(F)C(F)(F)C(F)(F)F)nn5)c5ccc(O)c(c5)Oc5cc(O)cc(c5)[C@H](NC3=O)C(=O)N[C@H]4C(=O)N[C@H]3C(=O)N[C@@H]2C(=O)N[C@H](C(=O)O)c2cc(O)cc(O)c2-c2cc3ccc2O)O[C@H](CO)[C@@H](O)[C@@H]1O | MCC | >50 µM |
